Assignment: determine reported log10 IC50 for the given compounds.
# EXPERIMENTAL TARGET: human cGAS (residues 161-522) (Homo sapiens, UniProt Q8N884)
# Construct: Recombinantly expressed purified human cGAS (residues 161-522) was used at 25 nM; made in house
# Sequence (Q8N884 161-522): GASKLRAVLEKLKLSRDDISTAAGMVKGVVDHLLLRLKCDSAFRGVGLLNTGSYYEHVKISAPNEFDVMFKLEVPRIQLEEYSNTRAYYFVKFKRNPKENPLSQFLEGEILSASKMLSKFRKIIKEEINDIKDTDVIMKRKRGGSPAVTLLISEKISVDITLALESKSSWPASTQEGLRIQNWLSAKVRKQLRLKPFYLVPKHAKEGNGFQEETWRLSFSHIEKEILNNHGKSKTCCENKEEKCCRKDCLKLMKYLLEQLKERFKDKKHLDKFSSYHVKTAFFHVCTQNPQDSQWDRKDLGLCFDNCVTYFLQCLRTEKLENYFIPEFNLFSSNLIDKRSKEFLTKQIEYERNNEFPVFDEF
# PROTOCOL DESCRIPTION: cGAS Activity Assay—Malachite Green
# Format: biochemical
# MEASUREMENT CONDITIONS: cGAS inhibition; 25 nM cGAS, 80 μM ATP, 80 μM GTP, 100 nM ISD, 4 hour at RT, Malachite Green phosphate detection; read-out: IC50 cGAS
Could you please treat all values as log10 of IC50 in nM?

COMPOUND | MEAS VALUE
Cn1ccc(-c2ccc(F)c(CNc3nc4[nH]c(C(F)(F)F)cc(=O)n4n3)c2)n1 | 3.09
CCCc1cc(=O)n2nc(NCc3cc(-c4ccn(C)n4)ccn3)nc2[nH]1 | 3.17
CCCCc1cc(=O)n2nc(NCc3ccn(-c4ccccc4)n3)nc2[nH]1 | 3.30
CCCc1cc(=O)n2nc(NCc3cc(-n4cnc(C)c4)ccc3Cl)nc2[nH]1 | 2.68
CCCc1cc(=O)n2nc(NCc3ccc(Cl)cc3Cl)nc2[nH]1 | 3.24
CCCc1cc(=O)n2nc(NCc3cc(-c4ccn(C)n4)ccc3C(F)(F)F)nc2[nH]1 | 3.23

State the recorded log10 IC50 for every item in the following list.
1. CCCc1cc(=O)n2nc(NCc3cc(N4CCOCC4)ccc3Cl)nc2[nH]1
2. CC(Nc1nc2[nH]c(C(F)(F)F)cc(=O)n2n1)c1ccc(-c2ccccc2)cc1 (stereo not drawn)
3. COCCc1cc(=O)n2nc(NCc3cc(-c4ccn(C)n4)ccc3Cl)nc2[nH]1
4. CCCc1cc(=O)n2nc(NCc3cc(-c4ccn(C)n4)ccc3F)nc2[nH]1
5. CCc1cc(=O)n2nc(NCc3cc(-c4ccn(C)n4)ccc3Cl)nc2[nH]1
6. O=c1cc(C(F)(F)F)[nH]c2nc(NCc3ccc(-c4ccccc4)cc3)nn12

[3.02, 3.39, 2.69, 2.78, 2.91, 2.92]

State the recorded log10 IC50 for every item in the following list.
1. Cc1cc(=O)n2nc(NCc3cc(-c4ccn(C)n4)ccc3Cl)nc2[nH]1
2. Cn1ccc(-c2ccc(CNc3nc4[nH]c(C(F)(F)F)cc(=O)n4n3)cc2)n1
3. CCCc1cc(=O)n2nc(NCc3ccc(N4CCOCC4)cc3)nc2[nH]1
4. CCCc1cc(=O)n2nc(NCc3cc(N4CCN(C)CC4)ncc3Cl)nc2[nH]1

3.32
3.45
3.33
3.82

###

# EXPERIMENTAL TARGET: human cGAS (residues 161-522) (Homo sapiens, UniProt Q8N884)
# Construct: Recombinantly expressed purified human cGAS (residues 161-522) was used at 25 nM; made in house
# PROTOCOL DESCRIPTION: cGAS Activity Assay—Malachite Green
# Assay type: biochemical
EXPERIMENTAL READOUT: pIC50
Numbers only, as −log10 of the molar value.

// worked examples, pIC50 included
COMPOUND SMILES | MEAS VALUE
CCCc1cc(=O)n2nc(NCc3cc(-c4ccccn4)ccc3Cl)nc2[nH]1 | 6.18
Cn1ccc(-c2ccc(Cl)c(CNc3nc4[nH]c(CCc5ccccc5)cc(=O)n4n3)c2)n1 | 5.80
CCCCc1cc(=O)n2nc(NCc3ccc(Cl)cc3Cl)nc2[nH]1 | 5.88

State the recorded pIC50 for every item in the following list.
1. CCCc1cc(=S)n2nc(NCc3cc(-c4ccn(C)n4)ccc3Cl)nc2[nH]1
2. CC(C)Cc1cc(=O)n2nc(NCc3ccc(Cl)cc3Cl)nc2[nH]1
3. CCCc1cc(=O)n2nc(OCc3cc(-c4cnn(C)c4)ccc3Cl)nc2[nH]1
4. CCCCc1cc(=O)n2nc(NCc3cc(N4CC5(COC5)C4)ncc3Cl)nc2[nH]1
5. CCCc1cc(=O)n2nc(NCc3cnc(N4CCN(C)CC4)cc3Cl)nc2[nH]1

1: 6.06; 2: 5.48; 3: 5.54; 4: 6.89; 5: 5.28

What value of pIC50 has been recorded for this entry: "CCCc1cc(=O)n2nc(NCc3cc(-c4ccn(C)n4)ccc3Cl)nc2[nH]1"
6.27

###

# EXPERIMENTAL TARGET: human cGAS (residues 161-522) (Homo sapiens)
# Construct: Recombinantly expressed purified human cGAS (residues 161-522) was used at 25 nM; made in house
# PROTOCOL DESCRIPTION: cGAS Activity Assay—Malachite Green
# Type: biochemical
# MEASUREMENT CONDITIONS: cGAS inhibition; 25 nM cGAS, 80 μM ATP, 80 μM GTP, 100 nM ISD, 4 hour at RT, Malachite Green phosphate detection; read-out: IC50 cGAS
EXPERIMENTAL READOUT: log10 IC50 (log10 of the value in nM)
Could you please treat all values as log10 of IC50 in nM?

COMPOUND | log10 IC50
CCCc1cc(=O)n2nc(NCc3cc(-c4ccccc4)ccc3Cl)nc2[nH]1 | 3.39

State the recorded log10 IC50 for every item in the following list.
1. CCCc1cc(=O)n2nc(OCc3ccc(-c4ccccc4)cc3Cl)nc2[nH]1
2. CCCc1cc(=O)n2nc(NC(C)c3ccc(Cl)cc3Cl)nc2[nH]1 (stereo not drawn)
3. CCCCc1cc(=O)n2nc(NCc3nc(N4CCOCC4)ncc3Cl)nc2[nH]1

1. 3.34
2. 3.83
3. 2.64

###

# EXPERIMENTAL TARGET: human cGAS (residues 161-522) (Homo sapiens, UniProt Q8N884)
# Construct: Recombinantly expressed purified human cGAS (residues 161-522) was used at 25 nM; made in house
# PROTOCOL DESCRIPTION: cGAS Activity Assay—Malachite Green
# Assay type: biochemical
# MEASUREMENT CONDITIONS: cGAS inhibition; 25 nM cGAS, 80 μM ATP, 80 μM GTP, 100 nM ISD, 4 hour at RT, Malachite Green phosphate detection; read-out: IC50 cGAS
EXPERIMENTAL READOUT: pIC50
One number for each entry, as −log10 of the molar value.

// worked examples, pIC50 included
COMPOUND | pIC50
CCCc1cc(=O)n2nc(NCc3cc(N4CC(OC)C4)ncc3Cl)nc2[nH]1 [Example 93] | 6.19
CCCc1cc(=O)n2nc(NCc3ccc(OC4CC4)cc3)nc2[nH]1 [Example 10] | 5.39

State the recorded pIC50 for every item in the following list.
1. CCCc1cc(=O)n2nc(NCc3ccc(C#N)cc3Cl)nc2[nH]1 [Example 7]
2. O=c1cc(Cc2ccccc2)[nH]c2nc(NCc3ccc(Cl)cc3Cl)nn12 [Example 71]
3. CCc1cc(=O)n2nc(NCc3ccc(Cl)cc3Cl)nc2[nH]1 [Example 37]
4. CCCc1cc(=O)n2nc(NCc3nc4ccccc4o3)nc2[nH]1 [Example 74]
5. O=c1cc(C(F)(F)F)[nH]c2nc(NCc3ccc(Cl)cc3Cl)nn12 [Example 60]

1: 5.62; 2: 5.75; 3: 5.29; 4: 5.34; 5: 5.90

State the recorded pIC50 for every item in the following list.
1. O=c1cc(Cc2ccccc2)[nH]c2nc(NCc3cc(-c4ccncc4)ccc3Cl)nn12 [Example 31]
2. CCCCc1cc(=O)n2nc(NCc3cc(-c4ccncn4)ccc3Cl)nc2[nH]1 [Example 86]
3. CCCc1cc(=O)n2nc(NCc3ccc(-c4ccn(C)n4)cc3)nc2[nH]1 [Example 14]
4. CCCc1cc(=O)n2nc(NCc3ccc(-n4ccnc4)cc3)nc2[nH]1 [Example 9]

7.11
7.10
5.31
5.40

###

# EXPERIMENTAL TARGET: human cGAS (residues 161-522) (Homo sapiens, UniProt Q8N884)
# Construct: Recombinantly expressed purified human cGAS (residues 161-522) was used at 25 nM; made in house
# PROTOCOL DESCRIPTION: cGAS Activity Assay—Malachite Green
# Type: biochemical
# MEASUREMENT CONDITIONS: cGAS inhibition; 25 nM cGAS, 80 μM ATP, 80 μM GTP, 100 nM ISD, 4 hour at RT, Malachite Green phosphate detection; read-out: IC50 cGAS
EXPERIMENTAL READOUT: log10(IC50) (log10 of the value in nM)
Could you please treat all values as log10 of IC50 in nM?

MOLECULE | log10(IC50)
CCCc1cc(=O)n2nc(NCc3cc(-c4cncnc4)ccc3Cl)nc2[nH]1 [Example 36] | 2.59
CCCc1cc(=O)n2nc(NCc3ccc(OC)cc3C)nc2[nH]1 [Example 70] | 3.56
CCCc1cc(=O)n2nc(NCc3cc(N4CCCCC4)ncc3Cl)nc2[nH]1 [Example 94] | 3.41
COCCCc1cc(=O)n2nc(NCc3cc(-c4ccn(C)n4)ccc3Cl)nc2[nH]1 [Example 48] | 2.78
CCCc1cc(=O)n2nc(NCc3cc(-c4ccncn4)ccc3Cl)nc2[nH]1 [Example 38] | 2.44
CCCc1cc(=O)n2nc(NCc3cc(NC(=O)c4ccon4)ncc3Cl)nc2[nH]1 [Example 90] | 2.91

State the recorded log10(IC50) for every item in the following list.
1. CCCc1cc(=O)n2nc(NCc3cc(-c4ccn(C)n4)ccc3C#N)nc2[nH]1 [Example 84]
2. CCCc1cc(=O)n2nc(NCc3ccc(N4CCOCC4)cc3Cl)nc2[nH]1 [Example 41]
3. O=c1cc(CNc2ccccc2F)[nH]c2nc(NCc3ccccc3Cl)nn12 [Example 80]
4. CCCc1cc(=O)n2nc(NCc3cc(-c4ncccn4)ccc3Cl)nc2[nH]1 [Example 43]
5. CCCc1cc(=O)n2nc(NCc3ccc(-c4ccccc4)cc3F)nc2[nH]1 [Example 1]

[3.06, 2.85, 3.28, 2.51, 2.87]
